Reference source: patent US12377110B2

- assay.name: Study A16 Part 1: PK of single ascending oral doses of fospropofol disodium (200 to 2000 mg), fasted healthy adults
- Assay type: in vivo, human
- conditions.used: both sexes, human, plasma, po, 1600 mg, oral fospropofol disodium 1600 mg; mean; read-out: Fospropofol Cmax
experimental.readout: Cmax (ng/mL)
Report as a plain number; the unit ng/mL is understood.

Recorded Cmax (compound `CC(C)c1cccc(C(C)C)c1OCOP(=O)(O)O` ): 10200

* * *

- assay.name: Study A17: PK of fospropofol and propofol after single oral dose of fospropofol disodium 800 mg in subjects with migraine
- conditions.used: female, human, plasma, po, 800 mg, Fospropofol AUC2, Mean, Mean, N = 12 migraine subjects; Fospropofol Disodium 800 mg oral
experimental.readout: AUC (ng·h/mL)
Report as a plain number; the unit ng·h/mL is understood.

Recorded AUC (compound `CC(C)c1cccc(C(C)C)c1OCOP(=O)(O)O` ): 3950

* * *

- assay.name: Study No. 15-3 toxicokinetics of fospropofol and propofol in plasma
- Type: in vivo, Sprague-Dawley rats
- conditions.used: female, Sprague-Dawley, rat, plasma, po, 100 mg/kg, oral gavage fospropofol disodium; Female; 100 mg/kg; Day 14; read-out: Fospropofol Tmax
experimental.readout: Tmax (min)
Report as a plain number; the unit min is understood.

Recorded Tmax (molecule `CC(C)c1cccc(C(C)C)c1OCOP(=O)(O)O` ): 4.98

* * *

- assay.name: Study No. 15-3 toxicokinetics of fospropofol and propofol in plasma
- Assay type: in vivo, Sprague-Dawley rats
- conditions.used: female, Sprague-Dawley, rat, plasma, po, 50 mg/kg, oral gavage fospropofol disodium; Female; 50 mg/kg; Day 1; read-out: Fospropofol Cmax
experimental.readout: Cmax (ng/mL)
Report as a plain number; the unit ng/mL is understood.

Recorded Cmax (molecule CC(C)c1cccc(C(C)C)c1OCOP(=O)(O)O [fospropofol] ): 582

* * *

- assay.name: Study A16 Part 1: PK of single ascending oral doses of fospropofol disodium (200 to 2000 mg), fasted healthy adults
- Type: in vivo, human
- conditions.used: both sexes, human, plasma; oral fospropofol disodium 400 mg; mean
experimental.readout: half-life (h)
Report as a plain number; the unit h is understood.

Recorded half-life (compound `CC(C)c1cccc(C(C)C)c1O` ): 2.94

* * *

- assay.name: Study A16 Part 1: PK of single ascending oral doses of fospropofol disodium (200 to 2000 mg), fasted healthy adults
- Assay type: in vivo, human
- conditions.used: both sexes, human, plasma, po, 2000 mg, Propofol Cmax Mean (SD), oral fospropofol disodium 2000 mg
experimental.readout: Cmax (ng/mL)
Report as a plain number; the unit ng/mL is understood.

Recorded Cmax (compound CC(C)c1cccc(C(C)C)c1O [propofol, 2,6-diisopropylphenol] ): 806

* * *

- assay.name: Study No. 15-3 (GLP): 14-day once daily oral gavage toxicity of fospropofol disodium
- Assay type: in vivo, Sprague-Dawley rats
- conditions.used: both sexes, rat, in vivo; 14 days once daily oral gavage, Sprague-Dawley rats
experimental.readout: NOAEL at 14 days (mg/kg/day)
Report as a plain number; the unit mg/kg/day is understood.

Recorded NOAEL at 14 days (compound CC(C)c1cccc(C(C)C)c1OCOP(=O)([O-])O.[Na+] [fospropofol disodium] ): 100

* * *

- assay.name: Study A16 Part 1: PK of single ascending oral doses of fospropofol disodium (200 to 2000 mg), fasted healthy adults
- Assay type: in vivo, human
- conditions.used: both sexes, human, plasma; oral fospropofol disodium 800 mg; mean; read-out: Fospropofol AUC0-T
experimental.readout: AUC(0-t) (µg·h/mL)
Report as a plain number; the unit µg·h/mL is understood.

Recorded AUC(0-t) (compound `CC(C)c1cccc(C(C)C)c1OCOP(=O)(O)O` ): 3.29
